- Target Entity: T1, pepN48 (peptide of the 48 N-terminal extracellular amino acids of human CXCR2) (human, biotin labeled on its N-terminus (panning, ELISA, SPR))
- T1 construct: Synthetic; also called N-terminus of CXCR2
- T1 peptide: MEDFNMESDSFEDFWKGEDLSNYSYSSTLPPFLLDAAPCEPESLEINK
- Test Name: SPR, Biacore T200; biotinylated pepN48 on SA chip;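 further: antibodies flowed in HBS-EP+ running buffer over the immobilized antigen at 0.5 to 10 nM, kinetic traces fitted to a protein-protein interaction model to derive constants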
Parameter: Kd. Scope: all listed entries.
Measured Metric: Kd

Binder	Measured Metric	Measured
abN48-8 (antibody, V domains shown, format as tested not clearly stated) VH: QVQLVQSGAEVKKPGSSVKVSCKASGGTLSSYAISWVRQAPGQGPEWMGWINPNSGGTNYAQKFQGRVTMTRDTSISTAYMELSRLRPDDTAVYYCASGYCSRSRCYDYWGQGTLVTVSS VL: QAVLTQPSSLSASPGASVSLTCTLRSGINVGAYRIYWYQQKPGSPPQFLLRYKSDSDKQQGSGVPSRFSGSRDASANAGILLISGLRSEDEADYYCAIWHSSAWVFGGGTQLTVLG	Kd	0.016 nM
abN48-3 (antibody, V domains shown, format as tested not clearly stated) VH: QVQLVQSGAEVKKPGSSVKVSCKASGGTLSSYAISWVRQAPGQGPEWMGWINPNSGGTNYAQKFQGRVTMTRDTSISTAYMELSRLRPDDTAVYYCASGYCSFAICFDSWGQGTLVTVSS VL: QAVLTQPSSLSASPGASVSLTCTLRSGINVGAYRIYWYQQKPGSPPQFLLRYKSDSDKQQGSGVPSRFSGSRDASANAGILLISGLRSEDEADYYCAIWHSSAWVFGGGTQLTVLG	Kd	0.63 nM
abN48-7 (antibody, V domains shown, format as tested not clearly stated) VH: QVQLVQSGAEVKKPGSSVKVSCKASGGTLSSYAISWVRQAPGQGPEWMGWINPNSGGTNYAQKFQGRVTMTRDTSISTAYMELSRLRPDDTAVYYCASGYCGRARCTSFWGQGTLVTVSS VL: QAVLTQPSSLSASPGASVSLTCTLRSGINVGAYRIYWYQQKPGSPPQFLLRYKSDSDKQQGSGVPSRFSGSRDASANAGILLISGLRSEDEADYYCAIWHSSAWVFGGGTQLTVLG	Kd	0.012 nM
abN48-IgG1 (antibody, V domains shown, also called full-length abN48) VH: QVQLVQSGAEVKKPGSSVKVSCKASGGTLSSYAISWVRQAPGQGPEWMGWINPNSGGTNYAQKFQGRVTMTRDTSISTAYMELSRLRPDDTAVYYCASGYCSSTSCYDYWGQGTLVTVSS VL: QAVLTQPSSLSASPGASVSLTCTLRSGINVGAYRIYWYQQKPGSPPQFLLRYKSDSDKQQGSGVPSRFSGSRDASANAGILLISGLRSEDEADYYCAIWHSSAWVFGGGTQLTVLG	Kd	0.78 nM
abN48-4 (antibody, V domains shown, format as tested not clearly stated) VH: QVQLVQSGAEVKKPGSSVKVSCKASGGTLSSYAISWVRQAPGQGPEWMGWINPNSGGTNYAQKFQGRVTMTRDTSISTAYMELSRLRPDDTAVYYCASGYCNRTRCYDHWGQGTLVTVSS VL: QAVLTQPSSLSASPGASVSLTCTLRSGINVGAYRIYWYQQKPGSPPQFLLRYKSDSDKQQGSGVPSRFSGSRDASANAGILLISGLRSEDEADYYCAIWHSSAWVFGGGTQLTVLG	Kd	0.031 nM
abN48-5 (antibody, V domains shown, format as tested not clearly stated) VH: QVQLVQSGAEVKKPGSSVKVSCKASGGTLSSYAISWVRQAPGQGPEWMGWINPNSGGTNYAQKFQGRVTMTRDTSISTAYMELSRLRPDDTAVYYCASGYCSRFNCKDYWGQGTLVTVSS VL: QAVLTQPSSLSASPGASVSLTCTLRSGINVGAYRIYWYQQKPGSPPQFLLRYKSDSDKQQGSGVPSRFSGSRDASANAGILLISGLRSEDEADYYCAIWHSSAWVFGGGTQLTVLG	Kd	≤ 0.0012 nM
abN48-6 (antibody, V domains shown, format as tested not clearly stated) VH: QVQLVQSGAEVKKPGSSVKVSCKASGGTLSSYAISWVRQAPGQGPEWMGWINPNSGGTNYAQKFQGRVTMTRDTSISTAYMELSRLRPDDTAVYYCASGYCSPSGCYVYWGQGTLVTVSS VL: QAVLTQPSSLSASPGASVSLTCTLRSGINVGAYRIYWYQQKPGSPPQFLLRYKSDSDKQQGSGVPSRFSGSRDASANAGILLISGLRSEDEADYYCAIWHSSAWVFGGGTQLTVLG	Kd	0.21 nM
